# method-description: Plasma and brain levels of Gabapentin after oral administration as capsules
# measurement-context: male, Sprague-Dawley, rat, in vivo, 2 capsules
quantity-kind: Kp at 2 h

In [3]: df
Out[3]:
                           compound  quantity_kind  numeric_value
0  NCC1(CC(=O)O)CCCCC1 [Gabapentin]      Kp at 2 h          0.378
